Consider the following compounds; for each one, report its inhibition in vivo at 280 µmol/kg.
Tested on: Rattus norvegicus
assay-text: Antiinflammatory activity in albino rat assessed as inhibition of carrageenan-induced paw edema at 0.28 mmol/kg, po administered 30 mins before carrageenan challenge measured after 1 hr relative to control
Assay type: functional
Kindly write the number and append the unit.

Looking up Cc1ccc(-c2cc(C(F)(F)F)nn2-c2ccc(S(N)(=O)=O)cc2)cc1 [CELECOXIB] , I see its inhibition in vivo at 280 µmol/kg listed as 42%

Lab book: inhibition in vivo at 280 µmol/kg of COc1ccc(-n2nc(C(=O)Nc3ccc(OC)c(OC)c3)nc2-c2cc(OC)c(OC)c(OC)c2)cc1 noted as 57%

What the record says about COc1ccc(-n2nc(C(N)=O)nc2-c2cc(OC)c(OC)c(OC)c2)cc1 : inhibition in vivo at 280 µmol/kg is 40%

Record summary for COc1ccc(-n2nc(C(=O)Nc3ccccc3)nc2-c2cc(OC)c(OC)c(OC)c2)cc1 : reported inhibition in vivo at 280 µmol/kg = 45%

CCNC(=O)c1nc(-c2cc(OC)c(OC)c(OC)c2)n(-c2ccc(OC)cc2)n1 has a reported inhibition in vivo at 280 µmol/kg of 60%

Please fill in: inhibition in vivo at 280 µmol/kg reported for COc1ccc(-n2nc(C(=O)Nc3cccc(C(F)(F)F)c3)nc2-c2cc(OC)c(OC)c(OC)c2)cc1 = 48%

Documented inhibition in vivo at 280 µmol/kg of CNC(=O)c1nc(-c2cc(OC)c(OC)c(OC)c2)n(-c2ccc(OC)cc2)n1 : 56%

Given item COc1ccc(-n2nc(C(=O)Nc3ccc(C)cc3)nc2-c2cc(OC)c(OC)c(OC)c2)cc1 , the value recorded as its inhibition in vivo at 280 µmol/kg is 38%

Given item COc1ccc2c(c1)c(CC(=O)O)c(C)n2C(=O)c1ccc(Cl)cc1 [INDOMETHACIN] , the value recorded as its inhibition in vivo at 280 µmol/kg is 55%

Measured inhibition in vivo at 280 µmol/kg, COc1ccc(-n2nc(C(=O)Nc3ccccc3C)nc2-c2cc(OC)c(OC)c(OC)c2)cc1 : 19%

inhibition in vivo at 280 µmol/kg recorded for this compound, COc1ccc(-n2nc(C(=O)Nc3ccc(Cl)cc3)nc2-c2cc(OC)c(OC)c(OC)c2)cc1 , is 55%

get_value(item= COc1ccc(-n2nc(C(=O)Nc3ccc(Br)cc3)nc2-c2cc(OC)c(OC)c(OC)c2)cc1 , readout=inhibition in vivo at 280 µmol/kg) returns 40%

The recorded inhibition in vivo at 280 µmol/kg for COc1ccc(-n2nc(C(=O)Nc3ccccc3OC)nc2-c2cc(OC)c(OC)c(OC)c2)cc1 is 52%

Value of measured inhibition in vivo at 280 µmol/kg for the entry COc1ccc(-n2nc(C(=O)Nc3ccc(O)cc3)nc2-c2cc(OC)c(OC)c(OC)c2)cc1 : 36%

Lab book: inhibition in vivo at 280 µmol/kg of COc1ccc(-n2nc(C(=O)Nc3ccc(C(=O)O)cc3)nc2-c2cc(OC)c(OC)c(OC)c2)cc1 noted as 50%

----------
Test system: Rattus norvegicus
assay-text: Ulcerogenic effect in albino rat assessed as ulcer index at 0.28 mmol/kg, po
Type: toxicity, organism-based
test-conditions: in vivo
property: UI

The reported UI of the compound COc1ccc(-n2nc(C(=O)Nc3ccc(OC)c(OC)c3)nc2-c2cc(OC)c(OC)c(OC)c2)cc1 was 7

Entry COc1ccc(-n2nc(C(=O)Nc3ccccc3)nc2-c2cc(OC)c(OC)c(OC)c2)cc1 ; UI = 4

Noted for COc1ccc(-n2nc(C(=O)NN)nc2-c2cc(OC)c(OC)c(OC)c2)cc1 : its UI reads 2

According to the records, this compound COc1ccc(-n2nc(C(N)=O)nc2-c2cc(OC)c(OC)c(OC)c2)cc1 displays UI of 9

So, COc1ccc(-n2nc(C(=O)Nc3cccc(C(F)(F)F)c3)nc2-c2cc(OC)c(OC)c(OC)c2)cc1 ? Its UI was 5
